Experiment: Solubility of glycerol-containing formulations (post vortexing, 30 min and overnight at 18° C.)
Format: physicochemical
Conditions: glycerol-containing formulation, 18 °C, aqueous with cosolvent or surfactant or cyclodextrin, compound 2 mg/mL; 20% glycerol; after 30 minutes incubation at 18° C.; read-out: Solubility of glycerol-containing formulations after 30 min incubation at 18° C., 20%
readoutLabel: solubility at 30 min

Worked cases, answers included:
>>> endpointvalue("CCN1/C(=C/C=C/c2sc3ccccc3[n+]2CC)Sc2ccccc21 [JAC-B1, 3′,3′-Diethylthiacarbocyanine iodide]")
"< 2000 µg/mL"
>>> endpointvalue("CCN1/C(=C/C(C)=C/c2sc3ccccc3[n+]2CC)Sc2ccccc21 [JAC-B2.5]")
"< 2000 µg/mL"

For the next question, use this compound.
Given CCN1/C(=C/C=C/c2oc3ccccc3[n+]2CC)Oc2ccccc21 [JAC-R1, 3′,3′-Diethyloxacarbocyanine iodide] , state its recorded solubility at 30 min. < 2000 µg/mL

The origin of these recorded values is patent US20230150960A1.
